Would you mind telling me the reported melting point of each entry?

Specify melting point for O=C(CS(=O)(=O)c1cccs1)C12CC3CC(CC(C3)C1)C2 and stop.
118 to 119 °C

Specify melting point for O=C(NCCCl)NC1OC(CO)C(O)C1O (stereo unspecified) and stop.
166 to 168 °C

Specify melting point for CC(O)Cc1ccc2oc(=O)[nH]c2c1 (stereo unspecified) and stop.
133 to 134 °C

Specify melting point for c1csc(N2CCN(Cc3ccc4sccc4c3)CC2)n1 and stop.
80 to 82 °C

Specify melting point for CCc1cc(=O)c(C(N)=O)c(CC)[nH]1 and stop.
254 °C

Specify melting point for CC(C)(CN)Cc1ccc(CC(C)(C)CN)cc1 and stop.
53 to 56 °C

* * *

parameter-measured: melting point

Specify melting point for COC(=O)c1ccc(Cc2ccc(NC(C)=O)cc2)cn1 and stop.
175 to 177 °C

Specify melting point for Cc1ccc2c(c1)C(C(=O)Nc1c(C(C)C)cccc1C(C)C)c1ccccc1CO2 (stereo not drawn) and stop.
166 to 167 °C

Specify melting point for COc1ccc(-c2[nH]nc3c2C(=O)c2c(NC(=O)CNCCO)cccc2-3)cc1 and stop.
243 °C

Specify melting point for Cc1c[nH]c2cc(-c3nn(C(C)c4oc5ccccc5c(=O)c4-c4cccc(F)c4)c4ncnc(N)c34)ccc12 (stereo not drawn) and stop.
262 to 265 °C

Specify melting point for COC(=O)N1c2cc(F)ccc2NC(=O)C1(C)C and stop.
166 to 168 °C

Specify melting point for CCCOc1ccccc1-c1nc2cc(N)ccc2c(=O)[nH]1 and stop.
185 °C

Specify melting point for Cc1nnc(-c2ccc3occ(-c4ccc(S(C)(=O)=O)cc4Cl)c3c2)o1 and stop.
198 to 199 °C

Specify melting point for COC(=O)C1(S(C)(=O)=O)C(C)NC(C)=CC1c1ccccc1S(=O)(=O)NN(C)C (stereo not drawn) and stop.
218 to 221 °C

Specify melting point for CCCCCOc1ccc(-c2cnc(C#N)nc2)cc1 and stop.
100 °C

Specify melting point for O=C(NCCO)c1cc(-c2cccc3nn(Cc4cccc(C(F)(F)F)c4)cc23)ccn1 and stop.
131 to 132 °C

Specify melting point for CCC1(CC)NC(C)(COC(=O)C(C)(C)C)COC1=O (stereo not drawn) and stop.
51 to 53 °C

Specify melting point for COc1ccc(-c2cccc(OC3SCC(OC(C)=O)C(OC(C)=O)C3OC(C)=O)c2)cn1 (stereo not drawn) and stop.
132 °C

Specify melting point for Cn1cc(C(F)(F)F)c(C(=O)O)c1Cl and stop.
197 to 198 °C

* * *

Would you mind telling me the reported melting point of each entry?

Specify melting point for Cc1ccc(C2CC(CN(C)C)Oc3ccccc32)cc1 (centres undefined) and stop.
114 to 116 °C

Specify melting point for CCCCCCCCCC(CC)C(=O)Nc1cc(C(=O)O)ccc1C (racemic) and stop.
217 to 220 °C

Specify melting point for COc1ccc(C(=O)Cc2c(Cl)cncc2Cl)c2c1OCC2CC(=O)OCc1ccccc1 (centres undefined) and stop.
120 to 122 °C

Specify melting point for CC(C)(C)c1ccc(/C=C/C(=O)Nc2ccc3c(c2)NCC3)cc1 and stop.
153 to 167 °C

* * *

Would you mind telling me the reported melting point of each entry?
# value in °C; strip the unit string

Specify melting point for COc1ccc(C2=N[C@H](c3ccccc3)[C@@H](OC(=O)Oc3ccc([N+](=O)[O-])cc3)CO2)cc1 (racemic) and stop.
164

Specify melting point for O=C(NC1N=C(c2ccccc2F)c2ccccc2-n2cnnc21)c1cc2ccccc2[nH]1 (stereo unspecified) and stop.
291

Specify melting point for O=C1NCCN(NC(=O)c2ccc(O)c(O)c2)C1=O and stop.
294

* * *

parameter-measured: melting point

Specify melting point for CC(C)(O)c1onc(-c2ccccc2Cl)c1C(=O)c1nnn(Cc2cc(C(F)(F)F)cc(C(F)(F)F)c2)c1-c1cccnc1 and stop.
105 °C

Specify melting point for CC(=O)N(C(=O)N(C)C)c1nnc(C(F)(F)F)s1 and stop.
61 to 63 °C

Specify melting point for COCCOc1c(S(C)(=O)=O)ccc(C(=O)O)c1C and stop.
104 to 106 °C

Specify melting point for O=C(NC(=O)c1c(F)cccc1F)Nc1cc(C(F)(F)F)c(Cl)cc1Br and stop.
196 °C

Specify melting point for CS(=O)(=O)Nc1cc(C(=O)c2ccccc2)ccc1N and stop.
184 to 186 °C

Specify melting point for OC(CCCN1CCC(O)(c2ccc(Cl)cc2)CC1)c1ccc(F)cc1 (centres undefined) and stop.
128 to 130 °C

Specify melting point for CN(C)C(=O)Cc1c[nH]c2ccc(I)cc12 and stop.
195 to 200 °C

Specify melting point for CC(C)CC(NC(=O)c1ccc(NCc2c[nH]cn2)cc1-c1ccccc1)C(=O)O (centres undefined) and stop.
114 to 116 °C

Specify melting point for O=C1NCCC[C@@H]1NS(=O)(=O)c1ccc(F)cc1F and stop.
162 to 163 °C

Specify melting point for COc1ccc(-c2c(SCc3ccncc3)oc3cc(OC)ccc3c2=O)cc1 and stop.
140 to 141 °C

Specify melting point for CCC(=O)c1cc(OCc2ccccc2)c(OC)cc1[N+](=O)[O-] and stop.
120 to 123 °C

Specify melting point for C=Cc1ccnc2c([N+](=O)[O-])cccc12 and stop.
134 °C

Specify melting point for Cc1cc(OCCN2CCC(n3cnc4cccnc43)CC2)nn1-c1ccc(Cl)c(Cl)c1 and stop.
104 to 107 °C

Specify melting point for Cc1cc(-c2cn(-c3cccc(OCCn4ccnc4)c3)c3ncnc(N)c23)ccc1OCc1ccccc1 and stop.
158 to 160 °C

* * *

parameter-measured: melting point

Specify melting point for CCOC(=O)C1=Cc2cc(Br)ccc2NCC1 and stop.
120 to 121 °C

Specify melting point for CCN1c2ncc(OCc3ccccc3)cc2C(=O)N(C)c2ccc(Cl)nc21 and stop.
159 to 160 °C

Specify melting point for CCN(CC)C(=O)n1ccc(S(=O)(=O)c2c(C)cccc2OC)n1 and stop.
71 to 73 °C

Specify melting point for CON(c1ccc(SC)cc1[N+](=O)[O-])S(=O)(=O)c1ccc(C)cc1 and stop.
110 to 111 °C

* * *

Would you mind telling me the reported melting point of each entry?

Specify melting point for Cc1noc(C)c1S(=O)(=O)n1c(COC(C)C(=O)O)cc2cc(Cl)ccc21 (centres undefined) and stop.
110 to 112 °C

Specify melting point for COC(=O)C(=O)c1ccc(S(=O)CCOc2ccc3ccccc3c2)cc1 (centres undefined) and stop.
129 to 130 °C

Specify melting point for CCN(CC)c1ccc(-c2ccc3c(c2)C=C(C(=O)Nc2ccc(CN(C)C4CCOCC4)cc2)CCS3(=O)=O)cc1 and stop.
240 to 246 °C

Specify melting point for CCCCCCCc1cn(CC(O)c2ccccc2)c(=N)s1 (centres undefined) and stop.
124 °C

Specify melting point for Cc1nc(N)sc1-c1ccnc(CC2CC2)n1 and stop.
198 to 200 °C

Specify melting point for Cc1ccc(Cn2c(NC3CCN(CC(O)COc4ccccc4)CC3)nc3ccccc32)o1 (centres undefined) and stop.
165 °C

Specify melting point for O=C1CNC(SCc2ccccn2)=N1 and stop.
105 to 107 °C

Specify melting point for CC(C)(C)OCCCC1c2ccccc2COc2cccc(O)c21 (centres undefined) and stop.
113 to 115 °C

Specify melting point for Cc1ccccc1OCC(O)CN (centres undefined) and stop.
64 °C

* * *

parameter-measured: melting point

Specify melting point for CNC12CC(O)CCC1CCc1ccccc12 (stereo not drawn) and stop.
141 to 143 °C

Specify melting point for COc1ccc(C)cc1NC(=O)Nc1ccc(N2CCN(C(=O)Nc3ccc(N(C)CCO)cc3C)CC2)cc1 and stop.
208 to 210 °C

Specify melting point for Cc1nc(N2CCN(CCCc3ccccc3)C2=O)sc1C(=O)NCc1cccnc1 and stop.
127 to 128 °C

* * *

Would you mind telling me the reported melting point of each entry?

Specify melting point for Cc1c(C(=O)CN2CCCCC2)c(C)n(C)c1C(=O)c1ccc(Cl)cc1Cl and stop.
177 to 179 °C

Specify melting point for CCOC(=O)c1ccc(OC(=O)CCCC(=O)Oc2ccc(C(=O)OCC)cc2)cc1 and stop.
81 to 82 °C

Specify melting point for CC(C)NCCCOc1ccc(N)cc1Cc1ccccc1 and stop.
41.1 °C

Specify melting point for COc1ccc2c(c1)c(Cc1cc(=O)n(-c3cccc(Br)c3)[nH]1)c(C)n2C(=O)c1ccc(Cl)cc1 and stop.
164 to 167 °C

Specify melting point for CCCCS(=O)c1ccc(C(=O)OC)nc1 (centres undefined) and stop.
150 to 154 °C

Specify melting point for CN(C)S(=O)(=O)c1cc2c(c(Cl)c1Cl)OC(C(=O)OCC(=O)O)C2 (centres undefined) and stop.
149 to 150 °C

Specify melting point for COCC#Cc1cc2c(O)c(C(=O)NCc3ccc(Cl)cc3)cnc2s1 and stop.
215 to 218 °C

Specify melting point for O=C(Nc1ccc(F)cc1)N1CCCCN1 and stop.
78.5 to 79.5 °C

Specify melting point for CCOC(=O)C1=C(COCc2nnn(CCNc3ccc(S(=O)(=O)N4CCOCC4)cn3)n2)NC(C)=C(C(=O)OC)C1c1cccc(Cl)c1Cl (centres undefined) and stop.
112 to 114 °C

Specify melting point for ClC(=NNc1ccccc1)c1c(Cl)cccc1Cl and stop.
95.5 to 96.5 °C

Specify melting point for Cc1cc(C)nc(S(=O)(=O)Nc2c(C)cccc2Cl)n1 and stop.
215 to 219 °C

Specify melting point for CC1(C)CCC(C)(C)c2cc(-c3ccc(-c4ccccc4)c(-c4ccc(C(=O)O)cc4)c3)ccc21 and stop.
233 to 235 °C

Specify melting point for O=C(O)COc1ccc(OC2CCN(c3ccncc3)CC2)cc1 and stop.
288 to 291 °C

Specify melting point for CC(C)(C)c1ccc(-c2cc(C(=O)/C=C/c3ccc(C(=O)O)cc3)cc3c2C(C)(C)CCC3(C)C)cc1 and stop.
241 °C

Specify melting point for Cc1cccc(-c2cc(C(=O)NCCCCCCCc3ccccc3)cc(-c3cccc(C)c3)c2OCC(=O)O)c1 and stop.
58 to 62 °C

Specify melting point for COC1CN(c2ccc(NC(=O)OCc3ccccc3)cc2F)C1 and stop.
95 to 96.5 °C

Specify melting point for COc1ccc(N2CCN(CCC3OCCc4c(Br)cccc43)CC2)cc1 (centres undefined) and stop.
105 to 106 °C

Specify melting point for Nc1ccccc1NC(=O)c1cc2cccc(OCCO)c2o1 and stop.
182 to 183 °C

Specify melting point for COc1cc(Nc2c(C#N)cnc3cc(-c4ccc(CO)cc4)sc23)c(Cl)cc1Cl and stop.
239 to 240 °C

Specify melting point for CCCc1c(OCCCCCC#N)ccc(C(=O)c2ccccc2O)c1O and stop.
62 to 63 °C

Specify melting point for CCOC(=O)Cn1c(C(=O)NCc2nnc3n2-c2sc(CC)cc2C(c2ccccc2Cl)=NC3)cc2ccccc21 and stop.
215 to 217 °C

Specify melting point for C[C@H](NC(=O)c1ccccc1)C(=O)CCl and stop.
120 to 122 °C

Specify melting point for CCOC(=O)c1ncc2[nH]c3ccc(Oc4ccc(OC)cc4)cc3c2c1COC and stop.
154 °C

Specify melting point for CC1=CC(=C(C#N)C#N)C=C(C)N1CCOCCCl and stop.
148 to 149 °C

Specify melting point for CCOC(=O)Nc1nc(-c2ccccc2)c(-c2nc3ccccc3c(=O)n2-c2ccc(C(C)=O)cc2)s1 and stop.
245 to 247 °C

Specify melting point for COC(=O)CC(=O)c1ccc(O)cc1 and stop.
90 to 92 °C

Specify melting point for CCOC(=O)c1cc(C(C)C)n(C)n1 and stop.
70.5 to 71 °C

Specify melting point for CCCC(=O)Oc1cc2c(s1)CCN(C(C(=O)C1CC1)c1ccccc1F)C2 (centres undefined) and stop.
84 to 85 °C

Specify melting point for CCOC(=O)CCCCN(C(=O)c1ccc(Cl)cc1)c1cccc2ccccc12 and stop.
74 to 75 °C
